# test_system: T1, BMPRIb receptor-Fc fusion (UniProt O00238 14-126)
# T1 construct: BMP receptor-Fc fusion used at 5 ug/mL; also called ALK-6
# T1 sequence (looked up): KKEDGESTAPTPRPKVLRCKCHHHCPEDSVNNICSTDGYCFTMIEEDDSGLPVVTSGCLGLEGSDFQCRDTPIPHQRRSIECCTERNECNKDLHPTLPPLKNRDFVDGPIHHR
# protocol_notes: ELISA-like plate assay, captured BMP-7 from conditioned media, receptor-Fc detection
endpoint_name: BMPRIb binding (relative to wild type = 1.0)

BMP-7 variant Y78D (ligand, In conditioned media; numbering on mature BMP-7) STGGKQRSQNRSKTPKNQEALRMASVAENSSSDQRQACKKHELYVSFRDLGWQDWIIAPEGYAAYYCEGECAFPLNSDMNATNHAIVQTLVHFINPETVPKPCCAPTQLNAISVLYFDDSSNVILKKYRNMVVRACGCH: 2.01 relative to wild type
BMP-7 variant L90P (ligand, In conditioned media; numbering on mature BMP-7) STGGKQRSQNRSKTPKNQEALRMASVAENSSSDQRQACKKHELYVSFRDLGWQDWIIAPEGYAAYYCEGECAFPLNSYMNATNHAIVQTPVHFINPETVPKPCCAPTQLNAISVLYFDDSSNVILKKYRNMVVRACGCH: 0.52 relative to wild type
BMP-7 variant W55N (ligand, In conditioned media; numbering on mature BMP-7) STGGKQRSQNRSKTPKNQEALRMASVAENSSSDQRQACKKHELYVSFRDLGWQDNIIAPEGYAAYYCEGECAFPLNSYMNATNHAIVQTLVHFINPETVPKPCCAPTQLNAISVLYFDDSSNVILKKYRNMVVRACGCH: 0 relative to wild type

BMPRIb binding (relative to wild type = 1.0) measured on BMP-7 variant L90E (ligand, In conditioned media; numbering on mature BMP-7) STGGKQRSQNRSKTPKNQEALRMASVAENSSSDQRQACKKHELYVSFRDLGWQDWIIAPEGYAAYYCEGECAFPLNSYMNATNHAIVQTEVHFINPETVPKPCCAPTQLNAISVLYFDDSSNVILKKYRNMVVRACGCH = 0.27 relative to wild type

Where do these numbers come from? They come from patent US20060058231A1.
